# protocol-description: Hydrophobicity index
# Type: ADME
outcome-measure: k'

[[record]]
compound = "CCn1cnc2c(NC3CCCC3)ncnc21"
measured_result = 1.66

[[record]]
compound = "c1nc(NC2CCCC2)c2ncn(C3CCCO3)c2n1 (stereo unspecified)"
measured_result = 1.81


1: Nc1ncnc2c1ncn2CCO
2: Cn1cnc2c(NC3CCCC3)ncnc21
3: Nc1ncnc2c1ncn2-c1ccccc1
4: Nc1ncnc2c1ncn2C1CCCC1
Given 4 compounds, produce a descending ranking by k'. Your reply should list the labels following the order given in the request.
4, 2, 3, 1
(4: 1.94, 2: 1.29, 3: 0.56, 1: 0.04)

* * *

# tested-system: Adenosine receptors; A1 & A2 (Rattus norvegicus) (UniProt P29276+P25099+P30543)
# protocol-description: It is the ratio of Ki value of A1 receptor to that of A2 receptor.
# Format: protein assay
outcome-measure: Selectivity ratio

a: CC[C@@H](Nc1ncnc2c1ncn2-c1ccccc1)c1ccccc1
b: c1ccc(Nc2ncnc3c2ncn3-c2ccccc2)cc1
c: Cn1cnc2c(N)ncnc21
d: CCn1cnc2c(NC3CCCCC3)ncnc21
e: c1ccc(-n2cnc3c(NC4CCCC4)ncnc32)cc1
Order these by Selectivity ratio, descending, and give the full ranking. Response field: labels, in requested order.
b, e, d, a, c
(b: 16, e: 9.1, d: 5.5, a: 3.2, c: 0.22)

I: Cn1cnc2c(Nc3ccccc3)nc(Cl)nc21
II: c1nc(NC2CCCC2)c2ncn(C3CCCC3)c2n1
III: CCn1cnc2c(NC3CCCC3)ncnc21
IV: c1nc(NC2CCCC2)c2ncn(C3CCCO3)c2n1 (stereo not drawn)
V: Nc1ncnc2c1ncn2C1CCCO1 (stereo not drawn)
Could you please sort these 5 entries by Selectivity ratio from high to low? Thanks in advance for listing the labels in the requested order.
III, IV, II, I, V
(III: 39, IV: 23, II: 16, I: 4.4, V: 0.82)

1: Cn1cnc2c(NC3CCCCC3)ncnc21
2: CCn1cnc2c(N)ncnc21
API: POST /compare with 1 and 2 ; response names the item with higher Selectivity ratio. In your reply, give the label of the chosen option.
1
(1: 14, 2: 0.19)

I: Cn1cnc2c(NC3CCCC3)nc(Cl)nc21
II: Cn1cnc2c(N)nc(Cl)nc21
III: CC[C@H](Nc1nc(Cl)nc2c1ncn2C)c1ccccc1
# rank by Selectivity ratio, ascending (min first) Your answer should be the labels, listed in the requested order.
II, III, I
